Data credit: patent US11459296B2

biological target: NDM-1 (Klebsiella pneumoniae, UniProt C7C422); test: metallo-β-lactamase inhibition assay (nitrocefin); conditions: 1.5 nM NDM-1, 100 μM nitrocefin, 37° C., pH 7.5
Sequence (C7C422 whole entry, looked up, species assumed): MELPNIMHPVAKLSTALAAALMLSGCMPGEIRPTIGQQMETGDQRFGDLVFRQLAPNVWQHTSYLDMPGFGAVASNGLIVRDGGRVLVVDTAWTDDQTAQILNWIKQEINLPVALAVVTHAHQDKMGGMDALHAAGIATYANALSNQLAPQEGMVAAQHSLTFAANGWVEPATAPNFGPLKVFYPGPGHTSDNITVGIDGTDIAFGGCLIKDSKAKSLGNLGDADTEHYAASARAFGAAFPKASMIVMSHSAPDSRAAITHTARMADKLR
Counter-ions that a name gives are not always drawn.
measuredEndpoint: IC50 (nM)

| molecule | result |
| --- | --- |
| CC(=O)Nc1ccc(-c2ccn(S(N)(=O)=O)c2C(=O)O)cn1 | 608 |
| NS(=O)(=O)n1ccc(-c2cccnc2)c1C(=O)O [Example 8, sodium salt] | 448 |

A = NS(=O)(=O)n1ccc(-n2cccc2)c1C(=O)O [Example 73, Sodium Salt]
B = NC(=O)c1ccc(-c2ccn(S(N)(=O)=O)c2C(=O)O)cc1
C = NS(=O)(=O)n1ccc(-c2cccc(F)c2)c1C(=O)O
Query: Place the items in sequence of falling IC50. Respond with an ordered listing of the labels, as requested.
Response: A, C, B

----------
molecular target: NDM-1 (Klebsiella pneumoniae, UniProt C7C422); assay: metallo-β-lactamase inhibition assay (nitrocefin); details: 1.5 nM NDM-1, 100 μM nitrocefin, 37° C., pH 7.5
pIC50: −log10 of the molar value. Structures can show the parent of a compound that is named as a salt.
measuredEndpoint: pIC50

Consider the following illustrative entries.
| compound | targetDesc | measuredEndpoint | result |
| --- | --- | --- | --- |
| NS(=O)(=O)n1ccc(-c2ccc(F)cc2)c1C(=O)O [Example 18, sodium salt] | NDM-1 (Klebsiella pneumoniae, UniProt C7C422) | pIC50 | 6.14 |
| Cn1cc(-c2ccn(S(N)(=O)=O)c2-c2nnn[nH]2)cn1 | NDM-1 (Klebsiella pneumoniae, UniProt C7C422) | pIC50 | 5.93 |
| NS(=O)(=O)n1ccc(OCC2CC2)c1C(=O)O [Example 72, Sodium Salt] | NDM-1 (Klebsiella pneumoniae, UniProt C7C422) | pIC50 | 5.41 |
| Cc1ccc(-c2ccn(S(N)(=O)=O)c2C(=O)O)cc1 [Example 2, sodium salt] | NDM-1 (Klebsiella pneumoniae, UniProt C7C422) | pIC50 | 6.32 |
| Cn1cc(-c2ccn(S(N)(=O)=O)c2C(=O)O)cn1 [Example 6, sodium salt] | NDM-1 (Klebsiella pneumoniae, UniProt C7C422) | pIC50 | 5.54 |

1 = NS(=O)(=O)n1ccc(-c2cccc3ncccc23)c1C(=O)O [Example 11, sodium salt]
2 = Nc1nc2c(-c3ccn(S(N)(=O)=O)c3C(=O)O)cccc2s1 [Example 53, hydrochloride]
3 = Nc1ccc(-c2ccn(S(N)(=O)=O)c2C(=O)O)cn1
Query: Place the items in sequence of falling pIC50. Respond with an ordered listing of the labels, as requested.
Response: 2, 3, 1

----------
experiment: Cytotoxicity Assay (CellTiter-Glo); assay type: cell-based; details: human, Hep G2 cells (ATCC HB-8065); 24 h exposure, cell viability; read-out: HepG2 CC50
Where a name gives a salt, the structure may show the parent alone.
measuredEndpoint: CC50 at 24 h

Consider the following illustrative entries.
| molecule | CC50 at 24 h |
| --- | --- |
| Cc1nn(C)c(C)c1-c1ccn(S(N)(=O)=O)c1C(=O)O [Example 7, sodium salt] | > 256 µg/mL |
| NS(=O)(=O)n1ccc(-c2ccc(=O)[nH]c2)c1C(=O)O [Example 52, Sodium Salt] | > 256 µg/mL |

Query: Would you mind telling me what CC50 at 24 h value was observed for Cn1cc(-c2ccn(S(N)(=O)=O)c2-c2nnn[nH]2)cn1 ?
Response: > 256 µg/mL

Query: Would you mind telling me what CC50 at 24 h value was observed for Nc1cncc(-c2ccn(S(N)(=O)=O)c2C(=O)O)c1 ?
Response: > 256 µg/mL

Query: Would you mind telling me what CC50 at 24 h value was observed for NS(=O)(=O)c1ccn(Cc2ccccc2)c1C(=O)O ?
Response: > 256 µg/mL

----------
Molecular target: NDM-1 (Klebsiella pneumoniae, UniProt C7C422)
Assay: metallo-β-lactamase inhibition assay (nitrocefin)
Type: biochemical
Details: 1.5 nM NDM-1, 100 μM nitrocefin, 37° C., pH 7.5
Protocol: Compounds of the invention were tested in a metallo-β-lactamase inhibition assay to investigate mechanism of action of the compounds. Results are reported as the concentration of test article required to inhibit enzyme activity by 50% (IC50). Inhibition of metallo-β-lactamase enzyme function was performed at 37° C. in buffer at pH 7.5 (50 mM HEPES, 150 mM NaCl, 0.1 mM ZnSO4, 20 μg/mL PEG4000), containing 1.5 nM NDM-1, 100 μM nitrocefin, and a range of concentrations of compound. […]
pIC50: −log10 of the molar value. Counter-ions that a name gives are not always drawn.
measuredEndpoint: pIC50

Consider the following illustrative entries.
| compound | pIC50 |
| --- | --- |
| Nc1nc2ccc(-c3ccn(S(N)(=O)=O)c3C(=O)O)cn2n1 [Example 47, hydrochloride] | 6.18 |
| Nc1ncc(-c2ccn(S(N)(=O)=O)c2C(=O)O)cc1F | 5.47 |
| NS(=O)(=O)n1ccc(-c2ccc(C3CCNCC3)cc2)c1C(=O)O [Example 34, hydrochloride] | 6.82 |
| Nc1cncc(-c2ccn(S(N)(=O)=O)c2C(=O)O)c1 | 5.68 |
| Nc1ccc(-c2ccn(S(N)(=O)=O)c2-c2nnn[nH]2)cn1 | 6.30 |

a = Cn1c(N)nc2c(-c3ccn(S(N)(=O)=O)c3C(=O)O)cccc21 [Example 46, hydrochloride]
b = NCC(=O)N1CCC(c2ccn(S(N)(=O)=O)c2C(=O)O)CC1
c = NCCCNC(=O)c1ccc(-c2ccn(S(N)(=O)=O)c2C(=O)O)cc1 [Example 51, hydrochloride]
Query: Endpoint returns the given compounds ordered by ascending pIC50. Respond with an ordered listing of the labels, as requested.
Response: a, b, c

----------
experiment: Cytotoxicity Assay (CellTiter-Glo); type: cell-based; details: human, Hep G2 cells (ATCC HB-8065); 24 h exposure, cell viability; read-out: HepG2 CC50
Where a name gives a salt, the structure may show the parent alone.
measuredEndpoint: CC50 at 24 h

| compound | CC50 at 24 h |
| --- | --- |
| CC(=O)N1CCC(c2ccc(-c3ccn(S(N)(=O)=O)c3C(=O)O)cc2)CC1 | 158 µg/mL |

Query: Would you mind telling me what CC50 at 24 h value was observed for NS(=O)(=O)n1ccc(OCC2CC2)c1C(=O)O [Example 72, Sodium Salt] ?
Response: > 256 µg/mL

Query: Would you mind telling me what CC50 at 24 h value was observed for Nc1ccc(-c2ccn(S(N)(=O)=O)c2C(=O)O)cn1 ?
Response: > 256 µg/mL

Query: Would you mind telling me what CC50 at 24 h value was observed for Cn1c(N)nc2c(-c3ccn(S(N)(=O)=O)c3C(=O)O)cccc21 [Example 46, hydrochloride] ?
Response: > 256 µg/mL

----------
biological target: NDM-1 (Klebsiella pneumoniae, UniProt C7C422); test: metallo-β-lactamase inhibition assay (nitrocefin); details: 1.5 nM NDM-1, 100 μM nitrocefin, 37° C., pH 7.5
Structures can show the parent of a compound that is named as a salt.
measuredEndpoint: IC50 (nM)

Consider the following illustrative entries.
| molecule | IC50 (nM) |
| --- | --- |
| NCCNS(=O)(=O)c1ccc(-c2ccn(S(N)(=O)=O)c2C(=O)O)cc1 | 1010 |
| NS(=O)(=O)n1ccc(-c2ccncc2)c1C(=O)O [Example 9, sodium salt] | 1350 |
| NS(=O)(=O)n1ccc(-c2ccc(NS(=O)(=O)C3CC3)cc2)c1C(=O)O | 548 |

I = CS(=O)(=O)c1ccc(-c2ccn(S(N)(=O)=O)c2C(=O)O)cc1 [Example 5, sodium salt]
II = NCCC(=O)N1CCC(c2ccn(S(N)(=O)=O)c2C(=O)O)CC1
Query: I'd appreciate it if you could identify which of I and II has the greater IC50. Write the label of whichever entry you select.
Response: II
(II: 834 nM, I: 444 nM)

a = CC(=O)N1CCC(c2ccn(S(N)(=O)=O)c2C(=O)O)CC1
b = NS(=O)(=O)n1ccc(-c2cccc(C3CCNCC3)c2)c1C(=O)O [Example 40, hydrochloride]
Query: I'd appreciate it if you could identify which of a and b has the greater IC50. Write the label of whichever entry you select.
Response: a

P = Nc1ncc(-c2ccn(S(N)(=O)=O)c2C(=O)O)cn1 [Example 25, sodium salt]
Q = NS(=O)(=O)n1ccc(-c2ccc(=O)[nH]c2)c1C(=O)O [Example 52, Sodium Salt]
Query: // task: argmin of IC50 over [ P , Q ] Write the label of whichever entry you select.
Response: P

----------
assay: Cytotoxicity Assay (CellTiter-Glo); format: cell-based; conditions: human, Hep G2 cells (ATCC HB-8065); 24 h exposure, cell viability; read-out: HepG2 CC50
Where a name gives a salt, the structure may show the parent alone.
// CC50 at 24 h lookup, one value per entry

Consider the following illustrative entries.
| molecule | CC50 at 24 h |
| --- | --- |
| NS(=O)(=O)n1ccc(-n2cccc2)c1C(=O)O [Example 73, Sodium Salt] | > 256 µg/mL |
| NS(=O)(=O)n1ccc(Cc2ccccc2)c1C(=O)O | 248 µg/mL |
| CC(=O)N1CCC(c2ccn(S(N)(=O)=O)c2C(=O)O)CC1 | > 256 µg/mL |
| Cc1ccc(-c2ccn(S(N)(=O)=O)c2C(=O)O)cc1 [Example 2, sodium salt] | > 128 µg/mL |
| NS(=O)(=O)n1ccc(-c2ccccc2F)c1C(=O)O | > 256 µg/mL |

Query: Would you mind telling me what CC50 at 24 h value was observed for COc1ccc(-n2ccc(S(N)(=O)=O)c2C(=O)O)cc1 ?
Response: > 256 µg/mL

Query: Would you mind telling me what CC50 at 24 h value was observed for Cc1ccccc1-c1ccn(S(N)(=O)=O)c1C(=O)O ?
Response: > 256 µg/mL

Query: Would you mind telling me what CC50 at 24 h value was observed for N#Cc1ccc(-c2ccn(S(N)(=O)=O)c2C(=O)O)cc1 ?
Response: > 256 µg/mL

Query: Would you mind telling me what CC50 at 24 h value was observed for NS(=O)(=O)c1ccn(-c2ccc(F)cc2)c1C(=O)O ?
Response: > 256 µg/mL
